Assignment: determine reported IC50 for the given compounds.
# experimental_target: Thymidine kinase (Varicella-zoster virus (strain Dumas) (HHV-3) (Human herpesvirus 3), UniProt P09250)
# Sequence (P09250 whole entry): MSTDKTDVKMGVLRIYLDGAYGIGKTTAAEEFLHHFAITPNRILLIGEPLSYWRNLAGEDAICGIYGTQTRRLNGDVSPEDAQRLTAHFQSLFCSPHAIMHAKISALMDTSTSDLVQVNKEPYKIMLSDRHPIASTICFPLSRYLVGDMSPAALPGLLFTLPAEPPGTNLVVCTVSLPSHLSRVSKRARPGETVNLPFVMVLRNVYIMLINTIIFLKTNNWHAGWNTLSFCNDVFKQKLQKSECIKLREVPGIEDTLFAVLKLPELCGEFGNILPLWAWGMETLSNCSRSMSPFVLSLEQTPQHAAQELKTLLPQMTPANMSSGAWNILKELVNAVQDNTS
# test_summary: Inhibitory concentration against Varicella- zoster virus thymidine kinase(VZV TK)
# Set-up: species or system Human alphaherpesvirus 3

Measured IC50, "CCCCCCCCCCCC(=O)O[C@H]1[C@H](O)[C@@H](CO)O[C@H]1n1cc(C)c(=O)[nH]c1=O" : > 1000 µM

Measured IC50, "Nc1ccn([C@@H]2O[C@H](CO)[C@@H](O)[C@@H]2O)c(=O)n1" : > 1000 µM

Measured IC50, "Cc1cn([C@@H]2O[C@H](CO)[C@@H](O)[C@H]2OCc2ccccc2)c(=O)[nH]c1=O" : > 1000 µM

Measured IC50, "CCCCCCCCCC(=O)O[C@H]1[C@H](O)[C@@H](CO)O[C@H]1n1cc(C)c(=O)[nH]c1=O" : > 1000 µM
